molecular target: recombinant human GR (Homo sapiens, UniProt P04150); assay: Human Glucocorticoid Receptor (GR) Assay (fluorescence polarization, Panvera/Invitrogen kit); details: GS Red tracer, 2 hours at room temperature, 100% control 10 μM Dexamethasone, read-out: Inhibition of GR binding, IC50
Sequence (P04150 whole entry): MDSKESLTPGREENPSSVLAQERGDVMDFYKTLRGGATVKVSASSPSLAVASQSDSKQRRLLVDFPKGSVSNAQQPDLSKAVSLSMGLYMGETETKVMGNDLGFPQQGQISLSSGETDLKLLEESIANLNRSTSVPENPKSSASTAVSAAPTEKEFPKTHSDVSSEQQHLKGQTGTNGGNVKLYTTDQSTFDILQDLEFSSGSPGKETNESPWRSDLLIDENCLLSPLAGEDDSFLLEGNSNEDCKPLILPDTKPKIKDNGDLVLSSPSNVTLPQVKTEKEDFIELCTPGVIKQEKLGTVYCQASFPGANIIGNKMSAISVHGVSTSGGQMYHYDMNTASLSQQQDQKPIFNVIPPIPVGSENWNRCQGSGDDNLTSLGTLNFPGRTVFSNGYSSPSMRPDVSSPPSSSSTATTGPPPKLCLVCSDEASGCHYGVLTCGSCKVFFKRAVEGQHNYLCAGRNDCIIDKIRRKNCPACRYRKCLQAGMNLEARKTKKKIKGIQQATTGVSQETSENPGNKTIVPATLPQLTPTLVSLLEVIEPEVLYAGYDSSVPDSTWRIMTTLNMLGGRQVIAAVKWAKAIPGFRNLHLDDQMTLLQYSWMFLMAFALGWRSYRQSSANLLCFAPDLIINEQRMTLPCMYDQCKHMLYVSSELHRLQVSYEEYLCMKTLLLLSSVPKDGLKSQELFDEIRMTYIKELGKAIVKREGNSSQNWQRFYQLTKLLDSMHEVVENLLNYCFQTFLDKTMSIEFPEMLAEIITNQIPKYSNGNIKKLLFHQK
property_label: IC50 (nM)
Answer format: numeric, nM implied, no suffix.

// known answers, use as guide
molecule	units	assay_value
C[C@]12C=CC(=O)C=C1[C@@H](F)C[C@H]1[C@@H]3C[C@H]4OC(c5ccc(F)cc5F)O[C@@]4(C(=O)SCF)[C@@]3(C)C[C@H](O)[C@@]12F (stereo partly drawn)	nM	1.2
C[C@]12C=CC(=O)C=C1[C@@H](F)C[C@H]1[C@@H]3C[C@H]4OC(c5ccc(Cl)cc5)O[C@@]4(C(=O)SCC#N)[C@@]3(C)C[C@H](O)[C@@]12F (stereo partly drawn)	nM	1.3
C[C@]12C=CC(=O)C=C1[C@@H](F)C[C@H]1[C@@H]3C[C@H]4OC(c5ccc(C(F)(F)F)cc5)O[C@@]4(C(=O)SCF)[C@@]3(C)C[C@H](O)[C@@]12F (stereo partly drawn)	nM	3.7
Cc1ccc(C2O[C@@H]3C[C@H]4[C@@H]5C[C@H](F)C6=CC(=O)C=C[C@]6(C)[C@@]5(F)[C@@H](O)C[C@]4(C)[C@]3(C(=O)SCC#N)O2)cc1 (stereo partly drawn)	nM	1.2
CSC(=O)[C@@]12OC(c3ccccc3F)O[C@@H]1C[C@H]1[C@@H]3CCC4=CC(=O)C=C[C@]4(C)[C@H]3[C@@H](O)C[C@@]12C (stereo partly drawn)	nM	0.62

Requested read-out IC50, target or system recombinant human GR (Homo sapiens, UniProt P04150), entry C[C@]12C=CC(=O)C=C1[C@@H](F)C[C@H]1[C@@H]3C[C@H]4OC(c5ccc(Cl)o5)O[C@@]4(C(=O)SCF)[C@@]3(C)C[C@H](O)[C@@]12F (stereo partly drawn)
0.59
